The reported numbers originate from PubChem BioAssay.

Assay: fission yeast growth modulation, primary screen, strain 972, OD600, 24 h, no modulator (AID 1090);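 also: basal condition with compound alone and no growth modifier present; test concentration not given here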
Conditions: S. pombe 972 growth, higher = more signal, called active from +8 up or from −8 down
# binarize z-score: threshold 0.09 inclusive, high side class 1, low side class 0

[in] Is z-score for O=C1NC(=O)C2C1C=CC(C(O)c1cccs1)N2Nc1ccc(Cl)cc1Cl (configuration not stated) at or above 0.09?
[out] class 1

[in] Is z-score for CC(=O)n1cc(C(O)C2C=CC3C(=O)N(c4ccccc4)C(=O)C3N2Nc2ccc([N+](=O)[O-])cc2)c2ccccc21 (configuration not stated) at or above 0.09?
[out] class 1

[in] Is z-score for COCCOC(=O)N1C(=O)[C@@]2(c3cc(C#CCC(C(=O)OC)C(=O)OC)ccc31)[C@H](C(=O)N1CCN(c3ncccn3)CC1)[C@H]1C(=O)O[C@H](c3ccccc3)[C@H](c3ccccc3)N1[C@@H]2c1ccccc1OCCO at or above 0.09?
[out] class 1

[in] Is z-score for CCCC[C@@H]1C[C@H]1[C@@H](NC(=O)C(C)(C)C)c1ccc(C(F)(F)F)cc1 at or above 0.09?
[out] class 0

[in] Is z-score for Cc1ccc(S[C@]2(C(=O)NCCCN(C)C)CC(=O)N(Cc3ccccc3C(F)(F)F)[C@@H]2c2ccc(CO)cc2)cc1 at or above 0.09?
[out] class 0

[in] Is z-score for C=C(CC1([C@@H](NP(=O)(c2ccccc2)c2ccccc2)[C@H]2C[C@@H]2CCCC)CC1)c1ccccc1 at or above 0.09?
[out] class 1

====

Molecular target: NADPH oxidase 2 (Homo sapiens) (UniProt P04839)
Sequence (P04839 whole entry, looked up): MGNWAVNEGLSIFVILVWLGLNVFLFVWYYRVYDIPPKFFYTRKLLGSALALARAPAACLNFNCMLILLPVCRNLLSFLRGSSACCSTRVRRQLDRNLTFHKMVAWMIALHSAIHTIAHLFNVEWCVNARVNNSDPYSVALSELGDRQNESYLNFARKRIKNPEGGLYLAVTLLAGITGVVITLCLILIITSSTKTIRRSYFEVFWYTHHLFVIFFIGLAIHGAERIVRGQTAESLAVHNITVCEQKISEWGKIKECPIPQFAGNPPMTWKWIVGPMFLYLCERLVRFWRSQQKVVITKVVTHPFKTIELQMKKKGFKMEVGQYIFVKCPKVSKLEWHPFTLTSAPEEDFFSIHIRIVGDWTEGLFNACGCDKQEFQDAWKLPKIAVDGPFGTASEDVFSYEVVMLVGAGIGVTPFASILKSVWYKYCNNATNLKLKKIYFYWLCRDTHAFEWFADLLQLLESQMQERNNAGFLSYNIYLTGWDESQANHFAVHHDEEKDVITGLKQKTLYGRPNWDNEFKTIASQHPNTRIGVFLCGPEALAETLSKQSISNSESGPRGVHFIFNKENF
Experiment: NOX2-dependent H2O2 signal modulators, primary screen, NOX inhibitor project, cell-based, HEK293-NOX2, PMA-stimulated, Amplex Red fluorescence (AID 1159); also: test concentration not given here
Settings: 45 min, higher = more signal, called active from +8 up or from −8 down
# binarize z-score: threshold -1 inclusive, high side 1, low side -1

[in] Is z-score for CCOC(=O)[C@H]1C/C=C/C[C@H](C(=O)OCC)C(=O)O[C@H]2[C@@H](OC)O[C@H](CO)[C@@H](OC(=O)c3c(OC)cccc3OC)[C@@H]2OC1=O at or above -1?
[out] -1

[in] Is z-score for C=C(C)[C@@H]1CC=C(C(O)C2C=CC3C(=O)N(C)C(=O)C3N2Nc2ccccc2)CC1 (some centres not stated) at or above -1?
[out] -1

[in] Is z-score for CC(C)C(O)C1C=CC2C(=O)NC(=O)C2N1Nc1ccc(Cl)cc1Cl (configuration not stated) at or above -1?
[out] 1

[in] Is z-score for COc1ccc(C#Cc2ccc3c(c2)[C@]2(C(=O)N3)[C@H](C(=O)Nc3nc4ccccc4s3)[C@H]3C(=O)O[C@H](c4ccccc4)[C@H](c4ccccc4)N3[C@@H]2c2ccc(O)cc2)cc1 at or above -1?
[out] 1

[in] Is z-score for CN1C(=O)C2C=CC(C(O)c3ccc([N+](=O)[O-])cc3)N(N3CCCCC3)C2C1=O (configuration not stated) at or above -1?
[out] 1

[in] Is z-score for COCCOC(=O)N1C(=O)[C@@]2(c3cc(C#CCCO)ccc31)[C@H](C(N)=O)[C@H]1C(=O)O[C@H](c3ccccc3)[C@H](c3ccccc3)N1[C@@H]2c1ccc(O)cc1 at or above -1?
[out] 1
